Target Or System: CLR/RAMP3 receptor (UniProt Q16602 23-461; O60896 24-148, limits assumed)
Sequence (Q16602 23-461 limits assumed, chain 1 of 2): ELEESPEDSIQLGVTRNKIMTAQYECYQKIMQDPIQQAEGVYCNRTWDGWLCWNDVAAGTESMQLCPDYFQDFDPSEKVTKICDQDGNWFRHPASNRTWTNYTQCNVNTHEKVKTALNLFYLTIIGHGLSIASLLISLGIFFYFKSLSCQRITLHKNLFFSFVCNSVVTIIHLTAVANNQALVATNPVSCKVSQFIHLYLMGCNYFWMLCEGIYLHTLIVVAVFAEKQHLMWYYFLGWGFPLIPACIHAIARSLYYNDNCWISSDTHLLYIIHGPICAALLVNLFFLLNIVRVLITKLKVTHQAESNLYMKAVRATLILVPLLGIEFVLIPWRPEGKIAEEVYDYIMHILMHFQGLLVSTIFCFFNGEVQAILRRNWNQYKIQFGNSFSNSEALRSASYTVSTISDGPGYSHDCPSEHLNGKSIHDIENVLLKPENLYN
Sequence (O60896 24-148 limits assumed, chain 2 of 2): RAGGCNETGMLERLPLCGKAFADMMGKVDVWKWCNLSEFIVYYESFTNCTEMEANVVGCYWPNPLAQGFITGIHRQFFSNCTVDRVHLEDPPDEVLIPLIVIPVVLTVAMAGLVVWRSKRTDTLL
Protocol: cell-based or functional assay
* marks the point of attachment. Palmitoyl = CCCCCCCCCCCCCCCC(=O)*
Would you mind labelling by CLR/RAMP3 EC50? At or over 200 pM is Criterion met, under is Criterion not met.

[
  {
    "Binder": "miniPEG-KGCRFGTCTVQKLAHQIYQFTDKDSAPVDPSSPHSY-NH2 (cysteine pairing not given here; also: K(PAL) present, lysine not given here) [SEQ ID NO: 48]",
    "Class": "Criterion not met"
  },
  {
    "Binder": "miniPEG-KGCRFGTCTVQKLAHQIYQFTDKDVAPRSKISPQGY-NH2 (ends and bridges not checked; also: K(PAL), position not given here) [SEQ ID NO: 101]",
    "Class": "Criterion met"
  }
]

INPUT: In plain terms: is recorded CLR/RAMP3 EC50 at least 200 pM for miniPEG-KGCRFGTCTVQKLAHQIYQFTDKDKDNSAPVDPSSPHSY-NH2 (cysteine pairing not given here; also: K(PAL) present, lysine not given here) [SEQ ID NO: 28] ?
OUTPUT: Criterion not met

INPUT: Check the entry Palmitoyl-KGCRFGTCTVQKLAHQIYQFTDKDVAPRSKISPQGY-NH2 (ends and bridges not checked) [SEQ ID NO: 103] : does CLR/RAMP3 EC50 equal or exceed 200 pM?
OUTPUT: Criterion met

INPUT: Does CLR/RAMP3 EC50 meet or surpass 200 pM for miniPEG-KGCRFGTCTVQKLAHQIYQFTDKDKDNVAPRSKISPQGY-NH2 (ends and bridges not checked; also: K(PAL), position not given here) [SEQ ID NO: 69] ?
OUTPUT: Criterion met
